Measured values drawn from ChEMBL document CHEMBL3885861 for this set.

# Species on record: Rattus norvegicus
# PROCEDURE_SUMMARY: Open TG-GATES - Regimen: Daily Repeat
# Format: toxicity, organism-based, Sprague-Dawley
# Parameters: regimen Daily Repeat, gender Male, age 6 weeks
# CONDITION_INFO: in vivo, po, 0 mg/kg, […], tissue Plasma, route gavage, dose level Control, time 7 day
RECORDED_METRIC: PL (mg/dL)
Report the figure in mg/dL without appending any unit label.

Fill in the blank: the reported PL of CC1=C(/C=C/C(C)=C/C=C/C(C)=C/CO)C(C)(C)CCC1 [RETINOL] is ____.
145.2

Fill in the blank: the reported PL of CCOC(=O)CCC(=O)O[C@H]1[C@H](O[C@@H]2[C@@H](C)[C@H](O[C@H]3C[C@@](C)(OC)[C@@H](O)[C@H](C)O3)[C@@H](C)C(=O)O[C@H](CC)[C@@](C)(O)[C@H](O)[C@@H](C)C(=O)[C@H](C)C[C@@]2(C)O)O[C@H](C)C[C@@H]1N(C)C [ERYTHROMYCIN ETHYLSUCCINATE] is ____.
155.2

Fill in the blank: the reported PL of O=C(CCCN1CCC(O)(c2ccc(Cl)cc2)CC1)c1ccc(F)cc1 [HALOPERIDOL] is ____.
169.8

Fill in the blank: the reported PL of CCCNC(=O)NS(=O)(=O)c1ccc(Cl)cc1 [CHLORPROPAMIDE] is ____.
154.2

Fill in the blank: the reported PL of CCOc1ccc(NC(=O)CC(C)O)cc1 (configuration not stated) [BUCETIN] is ____.
166.6

Fill in the blank: the reported PL of NNC(=O)c1ccncc1 [ISONIAZID] is ____.
163

Fill in the blank: the reported PL of COC1=CC(=O)C[C@@H](C)[C@]12Oc1c(Cl)c(OC)cc(OC)c1C2=O [GRISEOFULVIN] is ____.
146.6

Fill in the blank: the reported PL of `CN(C)CCN(Cc1cccs1)c1ccccn1` is ____.
146.6

Fill in the blank: the reported PL of CC(C)OC(=O)C(C)(C)Oc1ccc(C(=O)c2ccc(Cl)cc2)cc1 [FENOFIBRATE] is ____.
147.8

Fill in the blank: the reported PL of CN1C(=O)CN=C(c2ccccc2)c2cc(Cl)ccc21 [DIAZEPAM] is ____.
184.8

Fill in the blank: the reported PL of COc1ccc2[nH]c([S+]([O-])Cc3ncc(C)c(OC)c3C)nc2c1 (configuration not stated) [OMEPRAZOLE] is ____.
168.4

Fill in the blank: the reported PL of NC(N)=Nc1nc(CSCCC(N)=NS(N)(=O)=O)cs1 [FAMOTIDINE] is ____.
156.6
